src = ChEMBL document CHEMBL5143719

measured.property: pIC50
Just the number, please; pIC50 means minus log10 of the concentration in mol/L.

Form: item NC(=O)c1c(NC(=O)C2CC2)sc2c1CCCC2 ; test system Serine/threonine-protein kinase PknG (Mycobacterium tuberculosis); pIC50: 6.05

* * *

Assign Kd to each entry below.
system.tested: Serine/threonine-protein kinase PknG (Mycobacterium tuberculosis, UniProt P9WI73)
Sequence (P9WI73 whole entry): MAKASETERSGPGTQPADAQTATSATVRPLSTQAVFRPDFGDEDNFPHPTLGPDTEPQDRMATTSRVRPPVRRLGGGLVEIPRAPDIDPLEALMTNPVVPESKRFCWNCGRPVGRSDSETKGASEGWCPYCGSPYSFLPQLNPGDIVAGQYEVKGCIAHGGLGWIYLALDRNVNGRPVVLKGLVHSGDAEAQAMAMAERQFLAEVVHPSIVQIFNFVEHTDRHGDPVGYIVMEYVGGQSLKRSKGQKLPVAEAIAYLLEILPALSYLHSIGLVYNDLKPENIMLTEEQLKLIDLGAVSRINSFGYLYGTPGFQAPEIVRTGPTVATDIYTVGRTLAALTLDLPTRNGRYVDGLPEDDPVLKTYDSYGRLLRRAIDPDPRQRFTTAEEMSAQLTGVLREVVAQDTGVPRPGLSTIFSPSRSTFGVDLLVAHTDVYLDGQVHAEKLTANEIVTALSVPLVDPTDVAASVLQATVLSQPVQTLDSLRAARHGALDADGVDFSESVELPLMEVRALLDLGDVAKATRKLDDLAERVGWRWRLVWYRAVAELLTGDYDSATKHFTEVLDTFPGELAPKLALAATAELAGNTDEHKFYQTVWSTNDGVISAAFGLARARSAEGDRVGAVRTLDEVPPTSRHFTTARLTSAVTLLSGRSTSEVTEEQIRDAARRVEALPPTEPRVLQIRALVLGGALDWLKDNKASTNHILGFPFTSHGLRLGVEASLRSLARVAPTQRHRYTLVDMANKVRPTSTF

Looking up CCOc1ccc(C(=O)c2c(N)c(C(N)=O)c3ccccn23)cc1 , I found its Kd recorded as 13 µM

Looking up NC(=O)c1c(N)c(C(=O)c2ccc(Br)cc2)n2ccccc12 , I found its Kd recorded as 1.3 µM

Looking up NC(=O)c1c(N)c(C(=O)c2ccccc2)n2ccccc12 , I found its Kd recorded as 1.8 µM
